Tested on: NCI/ADR-RES ovarian
assay_explanation: NCI-60 one-dose screen, 48 h
applied_conditions: 10 µM unless noted
This is part of a sample that, as a whole, favours compounds with a hit. Of some 83,000 tested, about 20% had one in any assay. Activity calls are given as the source filed them. The calls were made as follows: active = growth percent below 10; inactive = the rest.
Outcome codes: active, inactive

{"compound": "COc1cccc(/C=C/C(=O)/C=C(/C=C/c2cccc(OC)c2OC)OB(F)F)c1OC", "answer_label": "inactive"}
{"compound": "COc1ccc(Cn2cc(C(=O)N=Nc3c(O)[nH]c4ccc(Br)cc34)nn2)cc1", "answer_label": "inactive"}
{"compound": "COc1ccc(Nc2nc(Nc3cc(C)[nH]n3)c3cc(OC)c(OC)cc3n2)cc1", "answer_label": "active"}
{"compound": "C=CCNc1nc(O)c(/C=C2\\C=Nc3ncccc32)s1", "answer_label": "inactive"}
{"compound": "CCN=c1sc2c(n1NC(=O)c1cc3ccc1CCc1ccc(cc1)CC3)C(=O)c1ccccc1C2=O", "answer_label": "active"}
{"compound": "CC(=O)O[C@H]1C[C@@]2(C)[C@@H](C[C@@H](O)[C@H]3[C@@]4(C)CC[C@H](N5CCCC5)[C@@H](C)[C@@H]4CC[C@@]32C)/C1=C(\\CCC=C(C)C)C(=O)O", "answer_label": "inactive"}
{"compound": "CC/C(=C(/c1ccc(Cl)cc1)c1ccc(OCCN2CCCCCC2)cc1)c1ccccc1", "answer_label": "inactive"}
{"compound": "CNC(=O)c1cc(Oc2ccc3nc(NC(=O)Nc4ccc(F)cc4F)sc3c2)ccn1", "answer_label": "inactive"}
{"compound": "CCN(CC)CCCNc1cc(OC)cc2cccnc12", "answer_label": "inactive"}
{"compound": "CC(=O)c1c(/C=C/c2ccc(C)cc2)c2ccccc2[nH]c1=O", "answer_label": "inactive"}
{"compound": "COc1ccc2c(O)cc3c(c2c1)[C@H](CCl)CN3C(=O)c1cc2cc(NC(=O)CCN3CCOCC3)ccc2[se]1", "answer_label": "active"}
{"compound": "COc1cc(/C=C2\\C(=O)N(CCOc3cc(O)c4c(=O)cc(-c5ccccc5)oc4c3)c3ccccc32)cc(OC)c1O", "answer_label": "inactive"}
{"compound": "O=C(Nc1ccc2[nH]ncc2c1)c1csc(Nc2ccccc2)n1", "answer_label": "inactive"}
{"compound": "CCOC(=O)c1c(Nc2nc3ccccc3s2)sc2c1CCC(=O)C2", "answer_label": "inactive"}
{"compound": "N#C/C(Sc1nc2sc3c(c2c(=O)n1Cc1ccccc1)CCCC3)=C1/SC=C(c2ccc(Cl)cc2)N1c1ccccc1", "answer_label": "inactive"}
{"compound": "Cc1c2cnccc2c(C)c2c1c1cc(C(=O)O)ccc1n2C", "answer_label": "active"}
{"compound": "COc1ccc(C2CC(=O)Oc3c(OC)c4c(c(OC)c32)OCO4)cc1 (configuration not stated)", "answer_label": "inactive"}
{"compound": "COc1ccc(C2=C/C(=C\\c3ccccc3O)C(=O)N2Cc2ccccc2)cc1", "answer_label": "inactive"}
{"compound": "COc1cc(OCc2cccc(-c3ccccc3)c2C)cc(OC)c1CN1CCCCC1C(=O)NCCOCCOCCN (configuration not stated)", "answer_label": "inactive"}
{"compound": "O=C(N/N=C/c1ccccc1Cl)c1ccccc1Nc1ccnc(C(F)(F)F)c1", "answer_label": "active"}
{"compound": "C=CCn1c(SCC(=O)Nc2ccc(C(=O)/C=C/c3cc(OC)c(OC)c(OC)c3)cc2)nnc1-c1cc(-c2ccc(S(N)(=O)=O)cc2)nc2ccccc12", "answer_label": "inactive"}
{"compound": "COc1cccc2cc(N(C)c3nc(C)nc4c3CCC4)ccc12", "answer_label": "inactive"}

Reference source: PubChem BioAssay (NCI)
